study-system: UniProt:P02790
Sequence (P02790 24-462): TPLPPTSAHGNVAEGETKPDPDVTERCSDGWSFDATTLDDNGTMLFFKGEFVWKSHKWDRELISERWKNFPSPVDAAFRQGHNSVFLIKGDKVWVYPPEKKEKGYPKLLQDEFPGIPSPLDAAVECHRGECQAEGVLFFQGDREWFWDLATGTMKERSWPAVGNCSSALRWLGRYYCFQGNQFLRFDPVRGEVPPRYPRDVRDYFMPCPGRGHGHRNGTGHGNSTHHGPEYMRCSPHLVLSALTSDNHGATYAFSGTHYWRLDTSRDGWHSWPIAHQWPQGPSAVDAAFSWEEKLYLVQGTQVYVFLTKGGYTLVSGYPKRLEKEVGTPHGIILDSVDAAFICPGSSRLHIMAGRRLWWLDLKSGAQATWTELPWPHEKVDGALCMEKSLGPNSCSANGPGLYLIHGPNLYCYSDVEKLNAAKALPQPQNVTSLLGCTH
outcome-measure: Kd (nM)

smiles-data	outcome-measure	test-value
C=CC1=C(C)C2=Cc3c(C=C)c(C)c4[n]3[Fe+][n]3c(c(C)c(CCC(=O)O)c3=CC3=NC(=C4)C(C)=C3CCC(=O)O)=CC1=N2	Kd	0.32
